# measurementProtocol: Oral bioavailability in rat (dose 5 mg/kg)
# Type: ADME, organism-based
# testConditions: in vivo
compounds and their reported bioavailability
endpoint: bioavailability

INSERT INTO measurements (compound, endpoint, experimentalresult) VALUES
  ('Cc1c(N2CCC(F)C2)c(F)cn2c(=O)c(C(=O)O)cc(C3CC3)c12 (centres undefined)', 'bioavailability', '13%'),
  ('Cc1c(N2CC[C@H]([C@@H](N)C(F)(F)F)C2)c(F)cn2c(=O)c(C(=O)O)cc(C3CC3)c12', 'bioavailability', '57%'),
  ('Cc1c(N2CCC(N)(CF)C2)c(F)cn2c(=O)c(C(=O)O)cc(C3CC3)c12 (centres undefined)', 'bioavailability', '63%'),
  ('Cc1c(N2C[C@@H](N)[C@@H](F)C2)c(F)cn2c(=O)c(C(=O)O)cc(C3CC3)c12', 'bioavailability', '34%');

* * *

# measurementProtocol: Compound was evaluated for maximal plasma concentration in rat upon 5 mg/kg upon oral administration
# Assay type: ADME, organism-based
# Set-up: dose 5 mg/kg, route oral
compounds and their reported Cmax
endpoint: Cmax (ng/mL)

INSERT INTO assay_data (compound, resultunit, experimentalresult) VALUES
  ('Cc1c(N2CC[C@H]([C@@H](N)C(F)(F)F)C2)c(F)cn2c(=O)c(C(=O)O)cc(C3CC3)c12', 'ng/mL', 800),
  ('Cc1c(N2CCC(F)C2)c(F)cn2c(=O)c(C(=O)O)cc(C3CC3)c12 (centres undefined)', 'ng/mL', 350),
  ('Cc1c(N2CCC(N)(CF)C2)c(F)cn2c(=O)c(C(=O)O)cc(C3CC3)c12 (centres undefined)', 'ng/mL', 600),
  ('Cc1c(N2C[C@@H](N)[C@@H](F)C2)c(F)cn2c(=O)c(C(=O)O)cc(C3CC3)c12', 'ng/mL', 900);

* * *

# System: Staphylococcus aureus
# measurementProtocol: Effective dose against Staphylococcus aureus NCTC-10649M in mice upon subcutaneous administration
# Assay type: functional
# testConditions: sc
molecules and their reported ED50
endpoint: ED50 (mg/kg/day)

INSERT INTO assay_data (molecule, limitoperator, experimentalresult) VALUES
  ('Cc1c(N2C[C@@H](CF)[C@H](N)C2)c(F)cn2c(=O)c(C(=O)O)cc(C3CC3)c12', '=', 1.2),
  ('Cc1c(N2C[C@@H](CN)[C@H](C(F)(F)F)C2)c(F)cn2c(=O)c(C(=O)O)cc(C3CC3)c12', '=', 0.7),
  ('Cc1c(N2CCC(CN)(CF)C2)c(F)cn2c(=O)c(C(=O)O)cc(C3CC3)c12 (centres undefined)', '=', 1.5),
  ('Cc1c(N2CCC(F)C2)c(F)cn2c(=O)c(C(=O)O)cc(C3CC3)c12 (centres undefined)', '>', 12);

* * *

compounds and their reported CC50
# System: DNA gyrase (bacterial)
# measurementProtocol: Compound was tested for bacterial DNA gyrase activity
# testConditions: Bacteria
endpoint: CC50 (µg/mL)

INSERT INTO measurements (compound, endpoint, experimentalresult) VALUES
  ('Cc1c(N2C[C@@H](N)[C@H](F)C2)c(F)cn2c(=O)c(C(=O)O)cc(C3CC3)c12 (stereo in doubt; 3a)', 'CC50', 0.7),
  ('Cc1c(N2CCC(F)C2)c(F)cn2c(=O)c(C(=O)O)cc(C3CC3)c12 (stereo not given)', 'CC50', 0.6),
  ('Cc1c(N2C[C@@H](CN)[C@H](C(F)(F)F)C2)c(F)cn2c(=O)c(C(=O)O)cc(C3CC3)c12', 'CC50', 6.5),
  ('Cc1c(N2CC[C@H](N)C2)c(F)cn2c(=O)c(C(=O)O)cc(C3CC3)c12', 'CC50', 0.03),
  ('Cc1c(N2C[C@@H](N)[C@H](C(F)(F)F)C2)c(F)cn2c(=O)c(C(=O)O)cc(C3CC3)c12', 'CC50', 3.8);

* * *

# Test system: Staphylococcus aureus
# measurementProtocol: Effective dose against Staphylococcus aureus NCTC-10649M in mice upon subcutaneous administration
# Format: functional
# testConditions: sc
endpoint: log10 ED50 (log10 of the value in mg/kg/day)

INSERT INTO assay_data (molecule, experimentalresult) VALUES
  ('Cc1c(N2C[C@H](CF)[C@@H](N)C2)c(F)cn2c(=O)c(C(=O)O)cc(C3CC3)c12', 0.08),
  ('Cc1c(N2C[C@H](N)[C@@H](F)C2)c(F)cn2c(=O)c(C(=O)O)cc(C3CC3)c12', 0.68),
  ('Cc1c(N2C[C@@H](N)[C@@H](F)C2)c(F)cn2c(=O)c(C(=O)O)cc(C3CC3)c12', 0.18),
  ('Cc1c(N2CC[C@H](N)C2)c(F)cn2c(=O)c(C(=O)O)cc(C3CC3)c12', -0.22),
  ('Cc1c(N2C[C@@H](N)[C@H](F)C2)c(F)cn2c(=O)c(C(=O)O)cc(C3CC3)c12 (stereo in doubt; 3a-R,R7)', 0.68),
  ('Cc1c(N2C[C@@H](N)[C@H](C(F)(F)F)C2)c(F)cn2c(=O)c(C(=O)O)cc(C3CC3)c12', 0.68),
  ('Cc1c(N2CC[C@H]([C@@H](N)C(F)(F)F)C2)c(F)cn2c(=O)c(C(=O)O)cc(C3CC3)c12', 1.08),
  ('Cc1c(N2CCC(N)(CF)C2)c(F)cn2c(=O)c(C(=O)O)cc(C3CC3)c12 (stereo not drawn)', 0.43);

* * *

# System: Escherichia coli
# measurementProtocol: Effective dose against Escherichia coli JUHL in mice upon subcutaneous administration
# Type: functional
# testConditions: sc
compounds and their reported ED50
endpoint: ED50 (mg/kg/day)

INSERT INTO assay_data (compound, limitoperator, experimentalresult) VALUES
  ('Cc1c(N2CC[C@H](N)C2)c(F)cn2c(=O)c(C(=O)O)cc(C3CC3)c12', '=', 0.1),
  ('Cc1c(N2C[C@H](N)[C@@H](F)C2)c(F)cn2c(=O)c(C(=O)O)cc(C3CC3)c12', '>', 5),
  ('Cc1c(N2C[C@@H](N)[C@H](F)C2)c(F)cn2c(=O)c(C(=O)O)cc(C3CC3)c12 (stereo in doubt; 3a-R,R7)', '>', 5),
  ('Cc1c(N2C[C@@H](CF)[C@H](N)C2)c(F)cn2c(=O)c(C(=O)O)cc(C3CC3)c12', '=', 0.8),
  ('Cc1c(N2CCC(N)(CF)C2)c(F)cn2c(=O)c(C(=O)O)cc(C3CC3)c12 (stereo not given)', '=', 4.3);

* * *

compounds and their reported ED50
# Tested on: Escherichia coli
# measurementProtocol: Effective dose against Escherichia coli JUHL in mice upon subcutaneous administration
# Assay type: functional
# testConditions: sc
endpoint: ED50 (mg/kg/day)

INSERT INTO assay_data (compound, endpoint, limitoperator, experimentalresult) VALUES
  ('Cc1c(N2CC[C@H]([C@@H](N)C(F)(F)F)C2)c(F)cn2c(=O)c(C(=O)O)cc(C3CC3)c12', 'ED50', '>', 4),
  ('Cc1c(N2C[C@@H](N)[C@@H](F)C2)c(F)cn2c(=O)c(C(=O)O)cc(C3CC3)c12', 'ED50', '=', 1.8),
  ('Cc1c(N2CCC(CN)(CF)C2)c(F)cn2c(=O)c(C(=O)O)cc(C3CC3)c12 (stereo not given)', 'ED50', '=', 1.5),
  ('Cc1c(N2C[C@H](CF)[C@@H](N)C2)c(F)cn2c(=O)c(C(=O)O)cc(C3CC3)c12', 'ED50', '=', 0.4),
  ('O=C(O)c1cn(C2CC2)c2cc(N3CCNCC3)c(F)cc2c1=O', 'ED50', '=', 0.1);

* * *

# Tested on: Staphylococcus aureus
# measurementProtocol: Antibacterial activity against Staphylococcus aureus NCTC-10649M was determined
# Format: functional
# testConditions: Staphylococcus aureus; read-out: MIC
endpoint: log10 MIC (log10 of the value in µg/mL)

INSERT INTO measurements (compound, experimentalresult) VALUES
  ('Cc1c(N2C[C@@H](N)[C@@H](F)C2)c(F)cn2c(=O)c(C(=O)O)cc(C3CC3)c12', -1.70),
  ('Cc1c(N2C[C@@H](CN)[C@H](C(F)(F)F)C2)c(F)cn2c(=O)c(C(=O)O)cc(C3CC3)c12', -2.00),
  ('Cc1c(N2CCC(F)(CN)C2)c(F)cn2c(=O)c(C(=O)O)cc(C3CC3)c12 (centres undefined)', -2.00),
  ('Cc1c(N2CC[C@H]([C@@H](N)C(F)(F)F)C2)c(F)cn2c(=O)c(C(=O)O)cc(C3CC3)c12', -2.30),
  ('Cc1c(N2C[C@H](CF)[C@@H](N)C2)c(F)cn2c(=O)c(C(=O)O)cc(C3CC3)c12', -2.00),
  ('Cc1c(N2CCC(N)(CF)C2)c(F)cn2c(=O)c(C(=O)O)cc(C3CC3)c12 (centres undefined)', -1.70),
  ('Cc1c(N2CCC(CN)(CF)C2)c(F)cn2c(=O)c(C(=O)O)cc(C3CC3)c12 (centres undefined)', -1.70),
  ('Cc1c(N2CC[C@H](N)C2)c(F)cn2c(=O)c(C(=O)O)cc(C3CC3)c12', -1.00),
  ('Cc1c(N2CC[C@@H]([C@@H](N)C(F)(F)F)C2)c(F)cn2c(=O)c(C(=O)O)cc(C3CC3)c12', -1.70),
  ('Cc1c(N2C[C@H](CF)[C@H](N)C2)c(F)cn2c(=O)c(C(=O)O)cc(C3CC3)c12', -2.00),
  ('Cc1c(N2C[C@@H](N)[C@H](C(F)(F)F)C2)c(F)cn2c(=O)c(C(=O)O)cc(C3CC3)c12', -1.70),
  ('Cc1c(N2C[C@H](N)[C@@H](F)C2)c(F)cn2c(=O)c(C(=O)O)cc(C3CC3)c12', -1.30),
  ('Cc1c(N2CCC(F)C2)c(F)cn2c(=O)c(C(=O)O)cc(C3CC3)c12 (centres undefined)', -1.70),
  ('O=C(O)c1cn(C2CC2)c2cc(N3CCNCC3)c(F)cc2c1=O', -0.41);
